Target: Recombinant human LTC4 synthase (Homo sapiens)
Sequence (Q16873 1-150): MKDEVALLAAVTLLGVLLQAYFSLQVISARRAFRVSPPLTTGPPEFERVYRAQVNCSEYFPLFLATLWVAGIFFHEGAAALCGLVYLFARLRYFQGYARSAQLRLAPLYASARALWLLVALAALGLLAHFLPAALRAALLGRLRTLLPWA
Experiment: LTC4 synthase in vitro assay (LTA4 to LTC4, HTRF detection)
Would you mind telling me the reported IC50 of each entry?
Answers are plain numbers, in nM.

compound	measuredOn	IC50, nM
COc1cccc(C(=O)Nc2ccc(C(=O)c3ccc(N(C)c4ccc(Cl)cc4)cn3)cc2C(=O)O)c1OC [3:27]	Recombinant human LTC4 synthase (Homo sapiens)	40
CCOCCN(c1ccc(Cl)cc1)c1ccc(C(=O)c2ccc(Oc3ccccc3)c(C(=O)O)c2)nc1 [1:7]	Recombinant human LTC4 synthase (Homo sapiens)	171

Dear colleague, could you send me IC50 for each of the items below? Thanks.
1. COc1cc(OC)cc(C(=O)Nc2ccc(C(=O)c3ccc(N(C)c4ccc(Cl)cc4)cn3)cc2C(=O)O)c1 [3:29]
2. COc1ccc(C(=O)Nc2ccc(C(=O)c3ccc(N(C)c4ccc(Cl)cc4)cn3)cc2C(=O)O)cc1 [3:4]
3. CN(c1ccc(Cl)cc1)c1ccc(C(=O)c2ccc(NC3CCSCC3)c(C(=O)O)c2)nc1 [2:19]
4. COc1cc(C(=O)Nc2ccc(C(=O)c3ccc(N(C)c4ccc(Cl)cc4)cn3)cc2C(=O)O)cc(OC)c1OC [3:16]
5. CN(c1ccc(Cl)cc1)c1ccc(C(=O)c2ccc(NC(=O)c3ccc(C(F)(F)F)cc3)c(C(=O)O)c2)nc1 [3:1]
6. Cc1cc(Cl)ccc1N(C)c1ccc(C(=O)c2ccc(C(=O)c3ccccc3)c(C(=O)O)c2)nc1 [5:22]
7. CN(c1ccc(Cl)cc1)c1ccc(C(=O)c2ccc(NC(=O)c3cccc(Br)c3)c(C(=O)O)c2)nc1 [3:38]
8. CS(=O)(=O)c1ccc(Oc2ccc(C(=O)c3ccc(N(CC4CC4)c4ccc(Cl)cc4)cn3)cc2C(=O)O)cc1 [1:37]

Completion:
[12, 23, 149, 157, 33, 442, 68, 300]

Dear colleague, could you send me IC50 for each of the items below? Thanks.
1. CN(c1ccc(Cl)cc1)c1ccc(C(=O)c2ccc(NCc3ccc(Cl)cc3Cl)c(C(=O)O)c2)nc1 [2:11]
2. CN(c1ccc(Cl)cc1)c1ccc(C(=O)c2ccc(C(=O)c3ccc(F)cc3)c(C(=O)O)c2)nc1 [5:15]
3. O=C(c1ccc(Oc2ccccc2O)c(C(=O)O)c1)c1ccc(N(CC2CC2)c2ccc(Cl)cc2)cn1 [1:28]
4. CN(c1ccc(Cl)cc1)c1ccc(C(=O)c2ccc(Oc3ccccc3S(C)(=O)=O)c(C(=O)O)c2)nc1 [1:48]
5. CN(c1ccc(Cl)cc1)c1ccc(C(=O)c2ccc(-c3cccc(Cl)c3)c(C(=O)O)c2)nc1 [21:4]
6. CN(c1ccc(Cl)cc1)c1ccc(C(=O)c2ccc(NC3CCOCC3)c(C(=O)O)c2)nc1 [2:16]

Completion:
88
126
44
632
704
333

* * *

Would you mind telling me the reported inhibition at 10 µM of each entry?
Molecular target: Recombinant human LTC4 synthase (Homo sapiens)
Construct: made in house; host or cells: Pichia pastoris ('Piccia pastoralis' [sic])
Sequence (Q16873 1-150): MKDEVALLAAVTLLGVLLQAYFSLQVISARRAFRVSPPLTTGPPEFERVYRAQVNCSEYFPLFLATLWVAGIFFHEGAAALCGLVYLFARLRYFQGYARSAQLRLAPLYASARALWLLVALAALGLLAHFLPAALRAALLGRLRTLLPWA
Test: LTC4 synthase in vitro assay (LTA4 to LTC4, HTRF detection)
Assay type: biochemical
Details: 5 min; total concentration of title compound in the assay 10 μM
Answers are plain numbers, in %.

compound	quantityName	testResult
CN(c1ccc(Cl)cc1)c1ccc(C(=O)c2ccc(Oc3ccccc3)c(C(=O)O)c2)nc1	inhibition at 10 µM	98

Dear colleague, could you send me inhibition at 10 µM for each of the items below? Thanks.
1. CN(c1ccc(C(C)(C)C)cc1)c1ccc(C(=O)c2ccc(Oc3ccccc3)c(C(=O)O)c2)nc1
2. N#CCCCN(c1ccc(Cl)cc1)c1ccc(C(=O)c2ccc(Oc3ccccc3)c(C(=O)O)c2)nc1
3. CN(c1ccc(Cl)cc1)c1ccc(C(=O)c2ccc(Oc3cccc(Cl)c3)c(C(=O)O)c2)nc1
4. CN(c1ccc(C(=O)c2ccc(Oc3ccccc3)c(C(=O)O)c2)nc1)c1ccc(F)c(F)c1
5. CN(c1ccc(Cl)cc1)c1ccc(C(=O)c2ccc(NC(=O)c3ccc(C(F)(F)F)cc3)c(C(=O)O)c2)nc1

Completion:
96
98
98
98
100

* * *

Target: Recombinant human LTC4 synthase (Homo sapiens, UniProt Q16873)
Experiment: LTC4 synthase in vitro assay (LTA4 to LTC4, HTRF detection)
Would you mind telling me the reported pIC50 of each entry?
One number for each entry, as −log10 of the molar value.

Worked examples, 4 molecules total:
molecule	pIC50
COc1c(F)c(F)cc(C(=O)Nc2ccc(C(=O)c3ccc(N(C)c4ccc(Cl)cc4)cn3)cc2C(=O)O)c1F	7.21
CN(c1ccc(Cl)cc1)c1ccc(C(=O)c2ccc(C(=O)c3ccc4c(c3)OCCO4)c(C(=O)O)c2)nc1	7.57
CN(c1ccc(Cl)cc1)c1ccc(C(=O)c2ccc(OCc3ccc4c(c3)OCO4)c(C(=O)O)c2)nc1	6.78
CN(c1ccc(Cl)cc1)c1ccc(C(=O)c2ccc(C(=O)c3ccc4c(c3)OCO4)c(C(=O)O)c2)nc1	7.11

Dear colleague, could you send me pIC50 for each of the items below? Thanks.
1. CN(c1ccc(Cl)cc1)c1ccc(C(=O)c2ccc(NC(=O)c3ccc4c(c3)OCCO4)c(C(=O)O)c2)nc1
2. CN(c1ccc(Cl)cc1)c1ccc(C(=O)c2ccc(Oc3ccccc3)c(C(=O)O)c2)nc1
3. CCCCCCC(=O)c1ccc(C(=O)c2ccc(N(C)c3ccc(Cl)cc3)cn2)cc1C(=O)O

Completion:
1: 7.77; 2: 6.96; 3: 7.05

Dear colleague, could you send me pIC50 for each of the items below? Thanks.
1. CN(c1ccc(Cl)cc1)c1ccc(C(=O)c2ccc(NC3CCCCC3)c(C(=O)O)c2)nc1
2. COc1ccc(Oc2ccc(C(=O)c3ccc(OCc4cccc(Cl)c4)cn3)cc2C(=O)O)cc1
3. O=C(c1ccc(Oc2ccccc2)c(C(=O)O)c1)c1ncc(N(Cc2ccccc2)c2ccc(Cl)cc2)cn1

Completion:
[6.85, 6.46, 6.92]

* * *

Target: Recombinant human LTC4 synthase (Homo sapiens, UniProt Q16873)
Sequence (Q16873 1-150): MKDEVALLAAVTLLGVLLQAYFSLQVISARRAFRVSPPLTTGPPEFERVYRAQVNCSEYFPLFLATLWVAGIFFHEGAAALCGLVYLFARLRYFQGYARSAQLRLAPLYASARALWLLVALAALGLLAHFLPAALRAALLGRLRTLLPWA
Assay: LTC4 synthase in vitro assay (LTA4 to LTC4, HTRF detection)
Would you mind telling me the reported IC50 of each entry?
Write your answer as a measured quantity: the number, then the unit.

compound	measuredOn	quantityName	testResult
CN(c1ccc(Cl)cc1)c1ccc(C(=O)c2ccc(C(=O)c3cccc(C(F)(F)F)c3)c(C(=O)O)c2)nc1 [5:27]	Recombinant human LTC4 synthase (Homo sapiens, UniProt Q16873)	IC50	54 nM
O=C(c1ccc(Oc2ccccc2Oc2ccccc2Cl)c(C(=O)O)c1)c1ccc(N(CC2CC2)c2ccc(Cl)cc2)cn1 [1:45]	Recombinant human LTC4 synthase (Homo sapiens, UniProt Q16873)	IC50	32 nM
COc1ccccc1CNc1ccc(C(=O)c2ccc(N(C)c3ccc(Cl)cc3)cn2)cc1C(=O)O [2:8]	Recombinant human LTC4 synthase (Homo sapiens, UniProt Q16873)	IC50	132 nM
CN(c1ccc(Cl)cc1)c1ccc(C(=O)c2ccc(Nc3cccc(S(C)(=O)=O)c3)c(C(=O)O)c2)nc1 [2:18]	Recombinant human LTC4 synthase (Homo sapiens, UniProt Q16873)	IC50	188 nM
CN(c1ccc(Cl)cc1)c1ccc(C(=O)c2ccc(NC(=O)c3cccc4c3OC(F)(F)O4)c(C(=O)O)c2)nc1 [3:18]	Recombinant human LTC4 synthase (Homo sapiens, UniProt Q16873)	IC50	112 nM

Dear colleague, could you send me IC50 for each of the items below? Thanks.
1. CN(c1ccc(Cl)cc1)c1ccc(C(=O)c2ccc(-n3nc(C(F)(F)F)cc3-c3ccc(Cl)cc3)c(C(=O)O)c2)nc1 [18:7]
2. COc1cccc(F)c1C(=O)Nc1ccc(C(=O)c2ccc(N(C)c3ccc(Cl)cc3)cn2)cc1C(=O)O [3:30]
3. CN(c1ccc(Cl)cc1)c1ccc(C(=O)c2ccc(-c3cccc(-c4ccccc4)c3)c(C(=O)O)c2)nc1 [21:9]
4. CN(c1ccc(Cl)cc1)c1ccc(C(=O)c2ccc(OCc3ccc(F)c(F)c3)c(C(=O)O)c2)nc1 [12:4]

Completion:
["250 nM", "26 nM", "511 nM", "150 nM"]
